- System: colon LOVO cell line
- experimentDescription: MTT assay against colon LOVO cell line
- Type: cell-based, human
- assayContext: Homo sapiens
metric: IC50 (nM)

Take a look at these entries with their results.
IC50 for CNC(=O)c1c(C)oc2cc(Oc3ccnc4cc(OCCCN5CC(O)C6(CC6)C5)c(OC)cc34)ccc12 (centres unmarked) is 800

According to the records, this molecule COc1cc2c(Oc3ccc4[nH]c(C)cc4c3F)ccnc2cc1OCCCN1CC(OC)C2(CC2)C1 (centres unmarked) displays IC50 of 400

Reported IC50 for COc1cc2c(Oc3ccc4[nH]c(C)cc4c3F)ccnc2cc1OCCCN1CC(O)C2(CC2)C1 (centres unmarked) was 300

Reported IC50 ( "C=C1CN(CCCOc2cc3nccc(Oc4ccc5c(C(=O)NC)cccc5c4)c3cc2OC)CC12CC2" ) = 1000

[1] CNC(=O)c1cccc2cc(Oc3ccnc4cc(OCCN5CC(=O)C6(CC6)C5)c(OC)cc34)ccc12
[2] CNC(=O)c1c(C)oc2cc(Oc3ccnc4cc(OCCN5CC(OC)C6(CC6)C5)c(OC)cc34)ccc12 (centres unmarked)
[3] COc1cc2c(Oc3ccc4[nH]c(C)cc4c3F)ccnc2cc1OCCCN1CC(=O)C2(CC2)C1
Sort the 3 molecules by IC50; largest first, smallest last. Answer by listing the labels in the requested order.
1, 2, 3
(1: 1100 nM, 2: 700 nM, 3: 200 nM)

[A] CNC(=O)c1cccc2cc(Oc3ccnc4cc(OCCCN5CC(O)C6(CC6)C5)c(OC)cc34)ccc12 (centres unmarked)
[B] CNC(=O)c1c(C)oc2cc(Oc3ccnc4cc(OCCN5CC(=O)C6(CC6)C5)c(OC)cc34)ccc12
[C] COc1cc2c(Oc3ccc4[nH]c(C)cc4c3F)ccnc2cc1OCCN1CC(=O)C2(CC2)C1
Put the molecules in ascending order of IC50. As an answer, provide the labels arranged in the order called for.
C, B, A
(C: 300 nM, B: 900 nM, A: 1500 nM)
